assay.comment: NCI Yeast Anticancer Drug Screen. Data for the mlh1 rad18 strain (AID 175)
protocol.conditions: S. cerevisiae mlh1 rad18 strain growth inhibition; at 50.0 µM; active compounds read high
The panel holds about 79,000 compounds, 15% with a hit somewhere; the sample as a whole holds those more often.
Some compounds, each annotated with its measured growth inhibition.
Supply the numeric figure in %, leaving out any unit text.

Examples with their reported growth inhibition follow.
compound="O=C1CCCC2C1C1CCCC(=O)C21 (stereo not drawn)" measurement_unit=% result=20.2
compound=O=[N+]([O-])c1ccc(N=NN2CCOCC2)cc1 measurement_unit=% result=6.55
compound=Clc1cnc(/N=C/c2ccc(/C=N/c3ncc(Cl)cc3Cl)cc2)c(Cl)c1 measurement_unit=% result=16.4

Please report the recorded growth inhibition for OC1c2ccccc2-c2ccc(N(Cc3ccccc3)Cc3ccccc3)cc21 (stereo not drawn) .
23.8

Please report the recorded growth inhibition for `c1ccc(Cc2cc(-c3cc(Cc4ccccc4)[nH]n3)n[nH]2)cc1` .
20.9

###

assay.comment: NCI Yeast Anticancer Drug Screen. Data for the sgs1 mgt1 strain (AID 161);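 also: 0% = growth of cultures given vehicle only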
protocol.conditions: S. cerevisiae sgs1 mgt1 strain, at 50.0 µM, active compounds read high
About 79,000 compounds went through this panel and 15% of them were active in at least one assay; those are over-represented in the sample as a whole.
Some molecules, each annotated with its measured growth inhibition.
Supply the numeric figure in %, leaving out any unit text.

molecule="CCSC(SCC)C(SCC)C(OC(=O)c1ccccc1)C(OC(=O)c1ccccc1)C(COC(=O)c1ccccc1)OC(=O)c1ccccc1 (stereo not given)" metric_name="growth inhibition" result=-14.4
molecule=COC(=O)c1cccc2cnccc12 metric_name="growth inhibition" result=3.6
molecule="O=C1OI(OI2OC(=O)c3ccccc32)c2ccccc21 (tested in a mixture with another compound)" metric_name="growth inhibition" result=-19.1

Please report the recorded growth inhibition for `O=C(O)C(CCl)(CCl)CCl` .
1.05

Please report the recorded growth inhibition for COc1ccc(C2OC23CC(C)(C)c2ccccc2C3=O)cc1 (stereo not given) .
-0.05

Please report the recorded growth inhibition for CN(C)CC(CCC(=O)c1ccccc1)C(=O)c1ccccc1 (stereo not given) .
26.2

###

assay.comment: NCI Yeast Anticancer Drug Screen. Data for the cln2 rad14 strain (AID 165);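 also: 0% = growth equal to vehicle treated cultures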
protocol.conditions: S. cerevisiae cln2 rad14 strain, at 50.0 µM, active compounds read high
About 79,000 compounds went through this panel and 15% of them were active in at least one assay; those are over-represented in the sample as a whole. Where a SMILES comes first, the peptide text is derived from it. [ ]: non-standard residue; d: D form. The star is where a group is joined. Nle = CCCC[CH](N)C(=O)O; Cbz = O=C(OCc1ccccc1)*; OBn = c1ccc(CO*)cc1
Some molecules, each annotated with its measured growth inhibition.
Supply the numeric figure in %, leaving out any unit text.

Please report the recorded growth inhibition for CSC(SC)C(OC(C)=O)C(OC(C)=O)C(OC(C)=O)C(COC(C)=O)OC(C)=O (centres undefined) .
-30.9

Please report the recorded growth inhibition for CCNC1C2(CCCCC2)NC(=O)C12CCCCC2 (centres undefined) .
12.1

Please report the recorded growth inhibition for `O=C1CCN(Cc2ccco2)C(=O)N1` .
-41

Please report the recorded growth inhibition for Cc1cc(Cl)ccc1NC(=O)C1C(=O)N(c2ccc(Cl)cc2C)C(=O)/C1=N\NC(N)=O (centres undefined) .
6.1

Please report the recorded growth inhibition for `CN(C)CCNC(=O)c1cccc2ccc(-c3ccncc3)nc12` .
-3.3

Please report the recorded growth inhibition for `FC12CCC(F)(CC1)CC2` .
-13.9

Please report the recorded growth inhibition for CCCCC(NC(=O)C1CCCN1C(=O)OCc1ccccc1)C(=O)OCc1ccccc1 (stereo not drawn) (Cbz-Pro-[Nle]-OBn; configuration not given here) .
-10.9

Please report the recorded growth inhibition for `O=Cc1cc(Cl)cc(Cl)c1` .
8.7

Please report the recorded growth inhibition for `CCOC(=O)c1ccc(NC(=O)Nc2ccc(F)c([N+](=O)[O-])c2)cc1` .
7

Please report the recorded growth inhibition for `C=C1CC[C@H]2C(C)=CC[C@H]3C(=C)C(=O)O[C@@H]3[C@@H]12` .
-3.9

Please report the recorded growth inhibition for CN1C(=O)CCC1(O)C1C=CC=CC1 (centres undefined) .
16.9

###

assay.comment: NCI Yeast Anticancer Drug Screen. Data for the mec2-1 strain (AID 157)
protocol.conditions: S. cerevisiae mec2-1 strain, at 50.0 µM
Compounds without any hit were thinned out: in the full panel of roughly 79,000, 15% have a hit. The source made the active and inactive calls. Cut-off read from the data, not from the text of the source: active = growth inhibition above about 70%; inactive = the rest.
// one of true (active), false (inactive), no free text

compound=Cc1cc(N(CCC#N)CCC#N)ccc1/C(N=Nc1ccc([N+](=O)[O-])cc1)=N\NC(=O)c1cc(Cl)ccc1C(=O)c1ccccc1 assigned_category=false
compound=NNC(=O)c1ccco1 assigned_category=false
compound=C/C(=C\C(=O)c1cccc([N+](=O)[O-])c1)c1cccc([N+](=O)[O-])c1 assigned_category=false
compound="CCOCCC(=O)OCCC(C)OC (configuration not stated)" assigned_category=false

Please turn your attention to the following entry.
Would you mind telling me which call this test gave `NNc1ccc(C(=O)O)cc1` ?
false

###

Some compounds, each annotated with its measured growth inhibition.
assay.comment: NCI Yeast Anticancer Drug Screen. Data for the mec2-1 strain (AID 157)
protocol.conditions: S. cerevisiae mec2-1 strain, at 50.0 µM, active compounds read high
Description: Growth inhibition of yeast strains with defined genetic alterations is measured as a screen for potential anti-cancer activity. Selected strains with alterations in DNA damage repair or cell cycle control were exposed to compounds and growth inhibition was measured relative to vehicle treated controls. The strain used in this assay is mec2-1
This is part of a sample that, as a whole, favours compounds with a hit. Of some 79,000 tested, about 15% had one in any assay.
Supply the numeric figure in %, leaving out any unit text.

Please report the recorded growth inhibition for `CC(=O)c1ccc(CCCCc2ccc([N+](=O)[O-])cc2)cc1` .
-17.8

Please report the recorded growth inhibition for `COc1ccc2c(-c3cc4ccccc4o3)cc(=O)oc2c1` .
-16.9

Please report the recorded growth inhibition for `COc1cccc(C=NC23CC4CC(CC(C4)C2)C3)c1` .
-3.15

Please report the recorded growth inhibition for COC(=O)CC(c1ccc2c(c1)OCO2)N1CCOCC1 (stereo unspecified) .
31.3

Please report the recorded growth inhibition for COC12CC3C4CCC5CC(O)CCC5(C)C4CCC3(C)C1C(C)C1(CCC(C)CO1)O2 (stereo unspecified) .
8.7

###

Some molecules, each annotated with its measured growth inhibition.
assay.comment: NCI Yeast Anticancer Drug Screen. Data for the rad50 strain (AID 155);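 also: 0% = growth of vehicle-only cultures of the same strain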
protocol.conditions: S. cerevisiae rad50 strain growth inhibition; at 50.0 µM; active compounds read high
About 79,000 compounds went through this panel and 15% of them were active in at least one assay; those are over-represented in the sample as a whole.
Supply the numeric figure in %, leaving out any unit text.

molecule="CCn1c2c(c3ccccc31)[C@@H](c1ccc(Cl)cc1)CC1C(=O)N(c3ccccc3)C(=O)C21 (stereo partly specified)" result=17.8
molecule="CN1C(=O)C(O)CC1c1ccccc1C(F)(F)F (stereo unspecified)" result=11.7
molecule=COc1cccc(OC)c1/C=C1\N=C(c2ccccc2)OC1=O result=-1.4
molecule="CCOC(=O)C(Cc1cc(N)c(O)c(N)c1)NC(C)=O (stereo unspecified)" result=1.95
molecule=CC(=O)N(C(C)=O)c1ccc2c3c(cccc13)CC2 result=0

Please report the recorded growth inhibition for `CC(C)(C#N)OC(=O)c1cc([N+](=O)[O-])cc([N+](=O)[O-])c1` .
8.55

Please report the recorded growth inhibition for `CCc1cc2c(c3c1CCCC3=O)CC1(C2)Cc2cc(CC)c3c(c2C1)C(=O)CCC3` .
6.05

Please report the recorded growth inhibition for `Cc1nc2cc(N)c(F)cc2[nH]1` .
-14.6

Please report the recorded growth inhibition for `NCCSC(O)(C(F)(F)F)C(F)(F)F` .
19.6

Please report the recorded growth inhibition for CC1C2(C)OCC(C#N)(C(=N)O2)C1(C#N)C#N (stereo unspecified) .
21.2

Please report the recorded growth inhibition for `N#Cc1ccc(/C=C2\Cc3ccccc3C2=O)cc1` .
-30.6

Please report the recorded growth inhibition for `Cc1ccc2c(c1)Cc1cc(C)ccc1-2` .
25.1

Please report the recorded growth inhibition for O=C1NCC2Cc3ccccc3C(c3ccccc3)=C12 (stereo unspecified) .
-1.6

Please report the recorded growth inhibition for `CCn1c(C)[n+](CC)c2ccc(C(C)=O)cc21` .
-0.35

Please report the recorded growth inhibition for `O=C(c1ccccc1)c1cccc2c1ccc1ccccc12` .
13.4

Please report the recorded growth inhibition for `Cc1ccsc1S(N)(=O)=O` .
-21.1

Please report the recorded growth inhibition for `Cc1ccsc1C(=O)c1ccccc1` .
-11.6

Please report the recorded growth inhibition for `Cc1ccnc(NS(=O)(=O)c2ccc(N=Cc3ccccc3O)cc2)n1` .
-28.4

Please report the recorded growth inhibition for Cc1ccc(S(=O)(=O)NC2CC3(C)CCC2C3(C)C)cc1 (stereo unspecified) .
-0.6

Please report the recorded growth inhibition for `CC1(C)N=C(N)N=C(N)N1c1cccc(CO)c1` .
0.5

Please report the recorded growth inhibition for `Cc1ccc2c(c1)C1(c3ccc(Cl)c(Cl)c3)Oc3ccc(C)cc3C(c3ccc(Cl)c(Cl)c3)(O2)O1` .
4.1
